Consider the following compounds and their measured IC50 readings.
- Tested on: K562
- ASSAY_NAME: Antiproliferative activity against human K562 cells assessed as inhibition of cell viability measured after 48 hrs by MTT assay
- Format: functional, cell-based
- RUN_PARAMETERS: K562, 48 h

[
  {
    "COMPOUND": "COc1ccc2[nH]cc(CCNCCC(=O)Nc3ccc(C)cc3N)c2c1",
    "MEASUREMENT_TARGET": "K562",
    "IC50": "> 50 µM"
  },
  {
    "COMPOUND": "Cc1ccc(NC(=O)CCNCCc2c[nH]c3ccccc23)c(N)c1",
    "MEASUREMENT_TARGET": "K562",
    "IC50": "> 50 µM"
  },
  {
    "COMPOUND": "COc1ccc2[nH]cc(CCNCCC(=O)Nc3ccccc3N)c2c1",
    "MEASUREMENT_TARGET": "K562",
    "IC50": "16.5 µM"
  },
  {
    "COMPOUND": "COc1ccc2[nH]cc(CCNCC(C)C(=O)Nc3ccccc3)c2c1 (racemic)",
    "MEASUREMENT_TARGET": "K562",
    "IC50": "37.5 µM"
  },
  {
    "COMPOUND": "O=C(CCNCCc1c[nH]c2ccc(Cl)cc12)Nc1ccccc1",
    "MEASUREMENT_TARGET": "K562",
    "IC50": "3.54 µM"
  },
  {
    "COMPOUND": "CC(CNCCc1c[nH]c2ccccc12)C(=O)Nc1ccccc1 (racemic)",
    "MEASUREMENT_TARGET": "K562",
    "IC50": "7 µM"
  },
  {
    "COMPOUND": "COc1ccc2[nH]cc(CCNCC(C)C(=O)Nc3ccc(C)cc3N)c2c1 (racemic)",
    "MEASUREMENT_TARGET": "K562",
    "IC50": "39.2 µM"
  },
  {
    "COMPOUND": "Nc1cc(F)ccc1NC(=O)CCNCCc1c[nH]c2ccccc12",
    "MEASUREMENT_TARGET": "K562",
    "IC50": "> 50 µM"
  },
  {
    "COMPOUND": "COc1ccc2[nH]cc(CCNCCC(=O)Nc3ccccc3)c2c1",
    "MEASUREMENT_TARGET": "K562",
    "IC50": "7.83 µM"
  },
  {
    "COMPOUND": "CC(CNCCc1c[nH]c2ccccc12)C(=O)Nc1ccccc1N (racemic)",
    "MEASUREMENT_TARGET": "K562",
    "IC50": "33.8 µM"
  },
  {
    "COMPOUND": "COc1ccc2[nH]cc(CCNCCC(=O)Nc3ccc(C)cc3[N+](=O)[O-])c2c1",
    "MEASUREMENT_TARGET": "K562",
    "IC50": "48.1 µM"
  }
]
